# test: folding stability dG unfold from trypsin proteolysis; higher = more stable
For each of the sequences below, state its folding stability dG unfold.
Write down the numeric answer in kcal/mol and omit the unit.

Query :: I have this sequence here, SAGGWIWIPPDDPEDAKEWARELVLMFANHMKEQGQEDMTVDVDIHVWDPKDGNWYRIPVEFRVKPDSAGGS [r8_163_TrROS] , and I need its recorded folding stability dG unfold.
Result :: 1.97

Query :: Any idea what its folding stability dG unfold is? The sequence is SAGGSAGGSAGGEKPKYIIIPATLTVPVLTKEGEGEKVEYKEITLLLIINPDTNEITVSSAGGSAGGSAGGS [r10_533_TrMRF]
Result :: 2.7

Query :: Entry SAGGSAGGSPGMKPVEIPFRNPDGKNWKITSIYVMPDGPAMITIEDPNNGKERQIPAEDIDEFSAGGSAGGS [r12_488_TrROS] : reported folding stability dG unfold = ?
Result :: -0.911

Query :: Return reported folding stability dG unfold; argument: SAGWQTIDFPIPPGEDIPIPIGNRPLRIQVDPNKNKYEIFNPFLGYRISIDVDPGAGWIKITIEPLKPPSAG [r5_302_TrROS]
Result :: 3.34
